Source: the supplement of paper PMC7877785

Test: self-splicing fitness, log relative to wild type (ln ratio); higher = more splicing; Tetrahymena group I intron in knt gene, E. coli kanamycin selection, DiMSum; sequences stand for … in CUCUCU…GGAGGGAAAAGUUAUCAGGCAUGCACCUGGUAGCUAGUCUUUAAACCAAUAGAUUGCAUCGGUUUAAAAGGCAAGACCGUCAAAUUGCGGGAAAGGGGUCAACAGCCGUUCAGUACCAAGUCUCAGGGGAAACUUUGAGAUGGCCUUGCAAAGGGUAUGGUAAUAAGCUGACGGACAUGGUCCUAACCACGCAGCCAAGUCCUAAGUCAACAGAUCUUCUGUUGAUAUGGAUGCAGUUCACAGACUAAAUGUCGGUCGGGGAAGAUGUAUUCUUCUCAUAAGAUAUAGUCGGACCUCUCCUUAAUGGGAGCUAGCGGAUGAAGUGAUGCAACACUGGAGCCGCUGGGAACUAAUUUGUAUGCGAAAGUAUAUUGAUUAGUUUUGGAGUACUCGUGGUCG;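 note: selection with 25 µg/mL kanamycin versus none on LB agar overnight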
Conditions: 30 °C
self-splicing fitness (ln): recorded values
Give a plain numeric answer without units written out.

Field: example entries. Status: answers known.
[
  {
    "item.sequence": "GUAGAGCAAUAUUACGAGAU",
    "self-splicing fitness (ln)": -4.13
  },
  {
    "item.sequence": "AAACAGCAAUAUUACGCCUU",
    "self-splicing fitness (ln)": -1.66
  },
  {
    "item.sequence": "GCCCAGCAAUAUUACGCCGG",
    "self-splicing fitness (ln)": -3.34
  }
]

Now let's try a different one.
What does the data say about its self-splicing fitness (ln)? Entry: CAGCAGCAAUAUUACGAUUU
-3.59
